# Tested on: BT-549 breast
# experiment description: NCI-60 one-dose screen, 48 h (100 = growth as untreated, 0 = no growth, -100 = all killed)
# cond: 10 µM
This is part of a sample that, as a whole, favours compounds with a hit. Of some 83,000 tested, about 20% had one in any assay.
Label rule, in plain words: growth of 80% and up is Condition met, under 80% is Condition not met.

Completed entries (count: 3):
• C=C/C(C)=C/C[C@]1(C)[C@H](C)[C@@H](OC(=O)CCC)[C@H](O)[C@@]23C(=C[C@H](OC)C[C@@H]12)[C@@H](OC(=O)CCC)O[C@H]3OC(C)=O = Condition not met
• C/C(=N\O)c1ccc(NC(=O)CSc2nnc(-c3ccccc3)n2-c2ccccc2)cc1 = Condition not met
• O=C1CC(SC(=S)C2CCCC2=O)C(=O)N1 (stereo not given) = Condition met

I'd appreciate it if you could say whether `CCOC(=O)c1sc2ncnc(Nc3ccc4c(cnn4C(=O)Nc4ccc(C)c(Cl)c4)c3)c2c1C` has growth at least equal to 80%. Condition met

I'd appreciate it if you could say whether `COc1ccc(-c2n[nH]nc2-c2cc(OC)c3c(c2OC)OCO3)cc1` has growth at least equal to 80%. Condition not met

I'd appreciate it if you could say whether `O=C(O)c1ccc(-n2cc(CNc3ccc(Oc4ccccc4)cc3)c(-c3ccccc3)n2)cc1` has growth at least equal to 80%. Condition met

I'd appreciate it if you could say whether `O=C(Nc1ccc(OCc2nnc(-c3ccc(Cl)cc3)o2)c(F)c1)Nc1ccc(Cl)c(C(F)(F)F)c1` has growth at least equal to 80%. Condition not met

I'd appreciate it if you could say whether `CCCc1nc(C(C)(C)O)c(C(=O)O)n1Cc1ccc(-c2ccccc2-c2nn[nH]n2)cc1` has growth at least equal to 80%. Condition met

I'd appreciate it if you could say whether `Cc1cc(Br)nnc1Br` has growth at least equal to 80%. Condition met

I'd appreciate it if you could say whether `c1cncc(-c2csc(-c3c[nH]c4ccccc34)n2)c1` has growth at least equal to 80%. Condition met

I'd appreciate it if you could say whether `O=C(CCn1cnc2c(cc(-c3ccccc3)n2-c2ccccc2)c1=O)Nc1ccc(F)cc1` has growth at least equal to 80%. Condition not met

I'd appreciate it if you could say whether CCCN(CCC)C(=O)[C@H](CC)[C@@H]1CC[C@@H](C)[C@@H]([C@H](C)[C@@H](O)[C@@H](C)C(=O)[C@H](CC)C2O[C@]3(C=C[C@@H](O)[C@]4(CC[C@@](C)([C@H]5CC[C@](O)(CC)[C@H](C)O5)O4)O3)[C@H](C)C[C@@H]2C)O1 (stereo not given in full) has growth at least equal to 80%. Condition not met

I'd appreciate it if you could say whether `O=S(=O)(NCCCNc1nccc(-c2cn(-c3ccccc3)nc2-c2ccc(Cl)c(O)c2)n1)c1ccccc1` has growth at least equal to 80%. Condition not met

I'd appreciate it if you could say whether `O=C(Nc1ccc2c(O)cc(S(=O)(=O)O)cc2c1)c1ccc([N+](=O)[O-])cc1` has growth at least equal to 80%. Condition met

I'd appreciate it if you could say whether CC[C@@H](C(=O)[C@@H](C)[C@@H](O)[C@H](C)[C@@H]1O[C@@H]([C@@H](CC)C(=O)O)CC[C@@H]1C)C1O[C@]2(C=CC(=O)[C@]3(CC[C@@](C)([C@H]4CC[C@](O)(CC)[C@H](C)O4)O3)O2)[C@H](C)C[C@@H]1C (stereo not given in full) has growth at least equal to 80%. Condition not met

I'd appreciate it if you could say whether `Nc1cc(Br)c(-c2nn3c(CCC(=O)c4nc5ccccc5[nH]4)nnc3s2)c(Br)c1` has growth at least equal to 80%. Condition met

I'd appreciate it if you could say whether `CC(C)(C)OC(=O)N1CCc2c(sc3ncnc(N/N=C/c4ccc(Br)cc4)c23)C1` has growth at least equal to 80%. Condition not met

I'd appreciate it if you could say whether `CCN(CCCNc1cc2c(c(N)c1S(=O)(=O)O)C(=O)c1ccccc1C2=O)c1ccccc1` has growth at least equal to 80%. Condition met

I'd appreciate it if you could say whether `O=C(Nc1cc([N+](=O)[O-])c2[nH]c(=O)c3ccccc3c2c1)C(F)(F)F` has growth at least equal to 80%. Condition met

Where do these numbers come from? They come from PubChem BioAssay (NCI).
